experimentalTarget: Voltage-gated inwardly rectifying potassium channel KCNH2 (Homo sapiens, UniProt Q12809)
Sequence (Q12809 whole entry): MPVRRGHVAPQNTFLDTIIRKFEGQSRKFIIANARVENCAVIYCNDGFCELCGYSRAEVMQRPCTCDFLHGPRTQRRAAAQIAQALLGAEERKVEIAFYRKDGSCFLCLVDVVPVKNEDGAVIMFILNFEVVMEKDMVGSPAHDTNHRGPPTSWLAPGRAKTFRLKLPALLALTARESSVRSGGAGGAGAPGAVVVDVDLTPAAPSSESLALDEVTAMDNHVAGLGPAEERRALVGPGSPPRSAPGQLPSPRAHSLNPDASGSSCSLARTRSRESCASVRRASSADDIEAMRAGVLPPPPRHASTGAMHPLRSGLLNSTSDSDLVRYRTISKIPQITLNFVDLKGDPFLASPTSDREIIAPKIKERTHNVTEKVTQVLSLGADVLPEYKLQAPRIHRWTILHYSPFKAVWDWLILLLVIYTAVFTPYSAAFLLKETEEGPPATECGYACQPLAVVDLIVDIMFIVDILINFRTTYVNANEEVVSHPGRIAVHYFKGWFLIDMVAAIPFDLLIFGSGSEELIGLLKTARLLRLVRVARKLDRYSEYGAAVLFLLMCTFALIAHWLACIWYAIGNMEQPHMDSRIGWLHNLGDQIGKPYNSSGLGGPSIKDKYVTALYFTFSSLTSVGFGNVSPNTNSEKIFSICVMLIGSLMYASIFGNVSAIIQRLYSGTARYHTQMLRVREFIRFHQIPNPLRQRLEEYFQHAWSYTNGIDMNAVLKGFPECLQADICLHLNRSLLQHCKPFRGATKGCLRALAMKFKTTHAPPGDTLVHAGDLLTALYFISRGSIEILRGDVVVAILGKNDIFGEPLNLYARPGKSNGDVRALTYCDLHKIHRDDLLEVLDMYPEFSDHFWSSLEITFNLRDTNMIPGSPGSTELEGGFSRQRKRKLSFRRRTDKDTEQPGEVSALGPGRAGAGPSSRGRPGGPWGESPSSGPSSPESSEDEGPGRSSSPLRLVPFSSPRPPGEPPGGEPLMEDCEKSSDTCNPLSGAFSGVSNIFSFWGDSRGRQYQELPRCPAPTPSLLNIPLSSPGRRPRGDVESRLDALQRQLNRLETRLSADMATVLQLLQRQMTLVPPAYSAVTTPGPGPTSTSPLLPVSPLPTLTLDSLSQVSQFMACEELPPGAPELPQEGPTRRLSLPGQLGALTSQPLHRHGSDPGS
experiment: Inhibition of hERG by patch-clamp method
measureName: IC50

smilesRepr	experimentalTarget	val
CN1CCCC[C@H]1c1ccc2c(-c3cnc(N)c(C(F)(F)F)c3)ncn2c1	Voltage-gated inwardly rectifying potassium channel KCNH2 (Homo sapiens, UniProt Q12809)	1100 nM
CCn1nc(-c2cnc(N)c(OC(F)F)c2)c2ccn([C@@H]3CCC(F)(F)C[C@@H]3OC)c(=O)c21	Voltage-gated inwardly rectifying potassium channel KCNH2 (Homo sapiens, UniProt Q12809)	9000 nM
CO[C@H](C)c1nc(-c2cnc(N)c(C(F)(F)F)c2)c2ccc(C3CCN(C)CC3)cn12	Voltage-gated inwardly rectifying potassium channel KCNH2 (Homo sapiens, UniProt Q12809)	1300 nM
CN1CCC(c2ccc3c(-c4cnc(N)c(C(F)(F)F)c4)nc([C@@H]4CCCO4)n3c2)CC1	Voltage-gated inwardly rectifying potassium channel KCNH2 (Homo sapiens, UniProt Q12809)	800 nM
